The origin of these recorded values is PubChem BioAssay AID1159580.

- runDescription: chemical genetic growth profiling, strain panel (AID 1159580);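 further: tested at 20 µM; growth read once vehicle control cultures reached saturation at 30 °C; lower values mean less growth of the strain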
- protocolConditions: S. cerevisiae deletion strains, growth OD, locus YOR290C, strain snf2
The whole screen tested about 5,500 compounds, of which about 2,000 (36%) were called active. Another 18% or so got no clear call; they are omitted. No stated cut-off is given here; in the data, active means normalized growth mostly below about 0.91 (no sharp cut-off); inconclusive means no clear call, values can overlap the other calls; inactive means mostly above about 0.92. The list shows a part of the results.
Hello, when you answer, please use one of the following outcomes: active, inactive

Reference set (2 entries):
[[record]]
compound = "NC(C(=O)O)C(O)C(=O)O (stereo not given)"
assignedcategory = "inactive"

[[record]]
compound = "O=C1CCCN1CC#CCN1CCCC1"
assignedcategory = "inactive"


stdin: Recorded test outcome, item Clc1ccc(COC(Cn2ccnc2)c2ccc(Cl)cc2Cl)cc1 (stereo not given)
stdout: active

stdin: Recorded test outcome, item O=C(O)[C@@H](S)[C@@H](S)C(=O)O
stdout: active

stdin: Recorded test outcome, item CN(C)C(=O)Oc1ccc[n+](C)c1
stdout: inactive

stdin: Recorded test outcome, item COP(=S)(OC)Oc1ccc([N+](=O)[O-])cc1
stdout: inactive

====

- runDescription: chemical genetic growth profiling, strain panel (AID 1159580);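 further: tested at 20 µM; growth read once vehicle control cultures reached saturation at 30 °C; lower values mean less growth of the strain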
- protocolConditions: S. cerevisiae deletion strains, growth OD, locus YFR010W, strain ubp6
Hit rate of the full screen: of about 5,500 compounds, about 2,000 (36%) were called active. Roughly 18% stayed inconclusive and do not appear here. No stated cut-off is given here; in the data, active means normalized growth mostly below about 0.91 (no sharp cut-off); inconclusive means no clear call, values can overlap the other calls; inactive means mostly above about 0.92. Some of the results follow.
Hello, when you answer, please use one of the following outcomes: Y for active, N for inactive

Reference set (5 entries):
[[record]]
molecule = "CN[C@@H]1C(OC2[C@H](O[C@H]3[C@H](O)[C@@H](O)[C@H](N=C(N)N)[C@@H](O)[C@@H]3N=C(N)N)OC(C)[C@]2(O)CO)OC(CO)C(O)C1O (some centres not stated)"
assignedcategory = "N"

[[record]]
molecule = "Clc1ccc(COC(Cn2ccnc2)c2ccc(Cl)cc2Cl)cc1 (configuration not stated)"
assignedcategory = "Y"

[[record]]
molecule = "C[C@@H]1CC[C@H]2C(C)(C)C3CC12CC[C@@]3(C)O (some centres not stated)"
assignedcategory = "Y"

[[record]]
molecule = "NCCCCC(=O)O"
assignedcategory = "N"

[[record]]
molecule = "CC(=O)O[C@H]1C[C@@H](OC(C)=O)C(C)(C)C2C[C@@H](OC(C)=O)[C@]3(C)C(CC[C@@]4(C)[C@H](c5ccoc5)OC(=O)[C@H]5O[C@]543)[C@]21C (some centres not stated)"
assignedcategory = "N"


stdin: Recorded test outcome, item Fc1ccc([C@@H]2CCNC[C@H]2COc2ccc3c(c2)OCO3)cc1
stdout: N

stdin: Recorded test outcome, item CC(=O)O[C@@H]1CC2C(C)(C)[C@H](O)C=C[C@]2(C)C2CC[C@@]3(C)[C@H](c4ccoc4)OC(=O)C4OC43[C@@]21C (some centres not stated)
stdout: N

stdin: Recorded test outcome, item NC(C(=O)O)C(O)C(=O)O (configuration not stated)
stdout: N

stdin: Recorded test outcome, item Clc1ccc(COC(Cn2ccnc2)c2ccc(Cl)cc2Cl)c(Cl)c1 (configuration not stated)
stdout: Y

stdin: Recorded test outcome, item C[C@]12CCC3c4ccc(OC(=O)c5ccccc5)cc4CCC3C1CCC2=O (some centres not stated)
stdout: N

stdin: Recorded test outcome, item CCCn1c(=O)c2[nH]c(C3CCCC3)nc2n(CCC)c1=O
stdout: N

stdin: Recorded test outcome, item O=C(O)CCC1NCC2CC1CN1CCCCC21 (configuration not stated)
stdout: N

stdin: Recorded test outcome, item Clc1ccc(CO/N=C(/Cn2ccnc2)c2ccc(Cl)cc2Cl)c(Cl)c1
stdout: Y

stdin: Recorded test outcome, item FC(F)(F)c1cccc(N2CCNCC2)c1
stdout: N
